Entry source: ChEMBL document CHEMBL1131783

test: Partition coefficient (logP); assay type: physicochemical; conditions: octanol/water
What logP was measured for each of the following?
Would you mind answering with just the numeric figure?

Looking for the measured logP of C[C@H](Cc1ccc2c(c1)OC(C(=O)[O-])(C(=O)[O-])O2)NC[C@H](O)c1cccc(Cl)c1.[Na+].[Na+] , can you help?
0.046

Looking for the measured logP of C[C@H](Cc1ccc2c(c1)OC(C(=O)OCCC(C)(C)C)(C(=O)OCCC(C)(C)C)O2)NC[C@H](O)c1cccc(Cl)c1 , can you help?
3.21

Looking for the measured logP of CCOC(=O)C1(C(=O)OCC)Oc2ccc(C[C@@H](C)NC[C@H](O)c3cccc(Cl)c3)cc2O1 , can you help?
0.35

Looking for the measured logP of CC(C)CCOC(=O)C1(C(=O)OCCC(C)C)Oc2ccc(C[C@@H](C)NC[C@H](O)c3cccc(Cl)c3)cc2O1 , can you help?
3.77

###

What Response was measured for each of the following?
biological target: Beta-3 adrenergic receptor (Rattus norvegicus); assay: Beta-3-adrenergic activity measured by percent response against free fatty acid (FFA) in rat plasma at a dosage of 0.1 mg/kg; type: functional, organism-based; set-up: dose 0.1 mg/kg
Quick note: give the figure in %, leave out the unit.

Looking for the measured Response of C[C@H](Cc1ccc2c(c1)OC(C(=O)O)(C(=O)OCCOC(C)(C)C)O2)NC[C@H](O)c1cccc(Cl)c1 (stereo not given in full) , can you help?
20

Looking for the measured Response of C[C@H](Cc1ccc2c(c1)OC(C(=O)O)(C(=O)OCC1CC1)O2)NC[C@H](O)c1cccc(Cl)c1 (stereo not given in full) , can you help?
37

Looking for the measured Response of CCC(=O)OC(C)OC(=O)C1(C(=O)OC(C)OC(=O)CC)Oc2ccc(C[C@@H](C)NC[C@H](O)c3cccc(Cl)c3)cc2O1 (stereo not given in full) , can you help?
2

Looking for the measured Response of C[C@H](Cc1ccc2c(c1)OC(C(=O)OCC(=O)Oc1ccccc1)(C(=O)OCC(=O)Oc1ccccc1)O2)NC[C@H](O)c1cccc(Cl)c1 , can you help?
37

Looking for the measured Response of CC(C)COCCOC(=O)C1(C(=O)OCCOCC(C)C)Oc2ccc(C[C@@H](C)NC[C@H](O)c3cccc(Cl)c3)cc2O1 , can you help?
63

###

target: Beta-3 adrenergic receptor (Rattus norvegicus) (UniProt P26255); test: Beta-3-adrenergic activity measured by percent response against free fatty acid (FFA) in rat plasma at a dosage of 0.1 mg/kg; type: functional, organism-based; set-up: dose 0.1 mg/kg
Sequence (P26255 whole entry): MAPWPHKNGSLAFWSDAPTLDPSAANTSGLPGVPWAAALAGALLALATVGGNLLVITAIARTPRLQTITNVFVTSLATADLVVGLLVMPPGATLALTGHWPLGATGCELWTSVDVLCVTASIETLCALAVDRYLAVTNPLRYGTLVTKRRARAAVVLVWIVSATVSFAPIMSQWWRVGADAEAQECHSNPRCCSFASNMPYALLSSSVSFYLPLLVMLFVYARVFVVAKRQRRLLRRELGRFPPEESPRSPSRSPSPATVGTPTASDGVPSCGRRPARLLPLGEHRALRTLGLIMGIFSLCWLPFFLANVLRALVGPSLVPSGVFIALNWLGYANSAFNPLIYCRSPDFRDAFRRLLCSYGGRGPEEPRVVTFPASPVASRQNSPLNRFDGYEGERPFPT
readout type: Response (%)
Quick note: give the figure in %, leave out the unit.

Looking for the measured Response of C[C@H](Cc1ccc2c(c1)OC(C(=O)OCC1CCCO1)(C(=O)OCC1CCCO1)O2)NC[C@H](O)c1cccc(Cl)c1 (some centres not stated) , can you help?
24

Looking for the measured Response of CC(C)OC(=O)C1(C(=O)O)Oc2ccc(C[C@@H](C)NC[C@H](O)c3cccc(Cl)c3)cc2O1 (some centres not stated) , can you help?
45

Looking for the measured Response of C[C@H](Cc1ccc2c(c1)OC(C(=O)OCCCCc1ccccc1)(C(=O)OCCCCc1ccccc1)O2)NC[C@H](O)c1cccc(Cl)c1 , can you help?
43

Looking for the measured Response of CCCCCCC(=O)OCOC(=O)C1(C(=O)OCOC(=O)CCCCCC)Oc2ccc(C[C@@H](C)NC[C@H](O)c3cccc(Cl)c3)cc2O1 , can you help?
23

Looking for the measured Response of C[C@H](Cc1ccc2c(c1)OC(C(=O)OCCc1cccc(Br)c1)(C(=O)OCCc1cccc(Br)c1)O2)NC[C@H](O)c1cccc(Cl)c1 , can you help?
71

Looking for the measured Response of C[C@H](Cc1ccc2c(c1)OC(C(=O)OCCOC(C)(C)C)(C(=O)OCCOC(C)(C)C)O2)NC[C@H](O)c1cccc(Cl)c1 , can you help?
14

Looking for the measured Response of C[C@H](Cc1ccc2c(c1)OC(C(=O)OCCc1ccccc1)(C(=O)OCCc1ccccc1)O2)NC[C@H](O)c1cccc(Cl)c1 , can you help?
95
